The measurements presented in this section are drawn from patent US20140289906A1.

- protocolSummary: 14C assay: 14CO2 capture from [14C]-carboxyl-labeled dicamba with IPTG-induced recombinant E. coli cells
- measurementContext: IPTG-induced recombinant E. coli cells; 14CO2 from [14C]-carboxyl-labeled dicamba
parameterMeasured: Dicamba Decarboxylase Activity

22 (protein, listed as Staphylococcus epidermidis) MAKSINFEEHYVVDDIQKETMKYMSSDPNGVPMQTMLKGLEQKSGFTNADDITKHDERIKFMDEHDVEMQVLSYGNGAPSNLEGERAIELCQQANDTLAKYVNEHPDRFVGFATLPINEPQAAVEEFKRCIKELGFKGALIMGHPKNGFLDQDQYDDLFATAEALNVPIYLHPSPVQSDVYQAYYKGNYSDVTAATFACFGYGWHVDVGIHAIHLVLSGVFDRHPNLNMIIGHWGEFVPFFLERMDDILFADHLEHPISYYFKNNFYITPSGMLTKPQFDLVKAEVGVDRILYSADYPYVEPDKLGTFLDELDLTEEEKEKISYKNGAKLLGLEK
High
38 (protein, listed as Variovorax paradoxus) MAQGKIGLEEHFAIPQTLQDSAGFVPGVYWKELSSRLLDIHDGRLRQMDEHGMEMMILSLNAPAVQAVADPVKAYELAVRANDFLAEQVAKRPDRFQAFAALPMQDPEKATQELERCMSVLGFRGALVNGFSQVGTPDNVAYYDAPQYAPFWAAAERLDAPFYLHPRNPIASWAQIYEGHPWLLGPTWAFAQETAVHALRLMASGLFDRHPGLKIILGHLGEGLPYNMWRVDHRNAWVKAPKGYPAKRKLCEYFQENFYLTTSGNFRTQTLIDAMLEVGSDRILFSTDWPFENIDHASNWFNDTSISEADRKKIGRTNAMSLFKLA
Low
70 (protein, listed as Alicyclobacillus acidocaldarius) MAIEPNRAADVHTHFLPTEVLEFLKREPRIQVDLERRAPDKEPFLTVEGRWSFELKRMFVDFEAFASAYRQAGIGLALVSPLPQLFVYHLPAEMGAQVAEVYNDALRDVLAPHRERFRPLATLPLADPTAAARELERRMDEGFVGAIVGPGVGEALIGDEAFWPLWEVADARRAVLFLHPLLHADPRAARLMLPNLVGVPWETTLAAAHLVLSGLLDRYPGARVLLAHGGGFLPYQIGRIEQGYDVWPQVRGRLQDRPTAYLRRMFYDNVLWSDAALRCLIDVVGADRVLAGSDFPFDLSAWPPRPGADVSVLAGGSGREGRLS
Low
39 (protein, listed as Agrobacterium fabrum) MAQGKVALEEHFAIPETLQDSAGFVPGDCWTELQHRLLDIQDTRLKLMDAHGIETMILSLNAPAVQAIPDKTKAIEIARRANDALAEECAKRPDRFLAFAALPLQDPDAATQELRRCVNDLGFVGALVNGFSQEGDGQTPLYYDLPQYRPFWGEVEKLDVPFYLHPRNPLPQDSRIYDGHPWLLGPTWAFAQETAVHALRLMASGLFDEHPRLDIILGHMGEGLPYMMWRIDHRNAWVKLPPRYPAKRRFVDYFNENFHITTSGNFRTQTLIDAILEIGADRILFSTDWPFENIDHASDWFHATSIAEADRVKIGRTNARRLFKLDGR
No
